# Organism: Rattus norvegicus
# Test protocol: DrugMatrix - Regimen: Daily Repeat
# Format: toxicity, organism-based, Sprague-Dawley
# Parameters: regimen Daily Repeat, gender Male, age 6-8 weeks
# Measurement setup: in vivo, po, 0 mg/kg, 72 h, tissue Blood, route oral GAVAGE, dose level Control, time 3 day, […]
Given measured LYMPHOCYTE, output MET if it is greater than or equal to 90% and NOT MET if not.

Input line: Given the entry CCCC[C@@H](CC)COC(=O)c1ccccc1C(=O)OC[C@@H](CC)CCCC [BIS(2-ETHYLHEXYL)PHTHALATE] , answer whether its LYMPHOCYTE meets or surpasses 90%.
Output line: MET

Input line: Given the entry c1ccc2[nH]c(-c3cscn3)nc2c1 [THIABENDAZOLE] , answer whether its LYMPHOCYTE meets or surpasses 90%.
Output line: MET

Input line: Given the entry C=CCN [ALLYLAMINE] , answer whether its LYMPHOCYTE meets or surpasses 90%.
Output line: NOT MET

Input line: Given the entry CC(C)n1c(/C=C/C(O)CC(O)CC(=O)O)c(-c2ccc(F)cc2)c2ccccc21 (stereo not given) [FLUVASTATIN] , answer whether its LYMPHOCYTE meets or surpasses 90%.
Output line: NOT MET

Input line: Given the entry Oc1c(Cl)cc(Cl)cc1Sc1cc(Cl)cc(Cl)c1O [BITHIONOL] , answer whether its LYMPHOCYTE meets or surpasses 90%.
Output line: NOT MET

Input line: Given the entry COc1ccc2c(c1)c(CC(=O)OCC(=O)O)c(C)n2C(=O)c1ccc(Cl)cc1 [ACEMETACIN] , answer whether its LYMPHOCYTE meets or surpasses 90%.
Output line: NOT MET

Input line: Given the entry Cn1cnc([N+](=O)[O-])c1Sc1ncnc2nc[nH]c12 [AZATHIOPRINE] , answer whether its LYMPHOCYTE meets or surpasses 90%.
Output line: NOT MET

Input line: Given the entry CC(C)(Oc1ccc(CCNC(=O)c2ccc(Cl)cc2)cc1)C(=O)O [BEZAFIBRATE] , answer whether its LYMPHOCYTE meets or surpasses 90%.
Output line: NOT MET
